# Test system: RAW264.7
# PROTOCOL_SUMMARY: Anti-inflammatory activity in mouse RAW264.7 cells assessed as inhibition of LPS-induced IL-6 production at 1 uM preincubated for 1 hr followed by LPS addition and measured after 24 hrs by EIA relative to control
# Type: functional
Consider the following molecules; for each one, report its inhibition at 1 µM.
Write the value in % as a bare number.

Looking up `COc1ccc(NC(=O)c2cccc(-c3cc(=O)c4c(OC)c(OC)c(OC)cc4o3)c2)cc1` , I see its inhibition at 1 µM listed as 19.2

Looking up `COc1cc2oc(-c3cccc(NC(=O)c4ccccc4)c3)cc(=O)c2c(OC)c1OC` , I see its inhibition at 1 µM listed as -17

Looking up `COc1cc(NC(=O)c2cccc(-c3cc(=O)c4c(OC)c(OC)c(OC)cc4o3)c2)cc(OC)c1OC` , I see its inhibition at 1 µM listed as 31.9

Looking up `COc1cccc(NC(=O)c2cccc(-c3cc(=O)c4c(OC)c(OC)c(OC)cc4o3)c2)c1` , I see its inhibition at 1 µM listed as 7.66

Looking up `COc1ccccc1C(=O)Nc1ccc(-c2cc(=O)c3c(OC)c(OC)c(OC)cc3o2)cc1` , I see its inhibition at 1 µM listed as -50

Looking up `COc1cc(NC(=O)c2cccc(-c3cc(=O)c4c(O)c(OC)c(OC)cc4o3)c2)cc(OC)c1OC` , I see its inhibition at 1 µM listed as 53.5

Looking up `COc1ccc(C(=O)Nc2cccc(-c3cc(=O)c4c(O)c(OC)c(OC)cc4o3)c2)cc1` , I see its inhibition at 1 µM listed as -7.54

Looking up `COc1cccc(NC(=O)c2cccc(-c3cc(=O)c4c(O)c(OC)c(OC)cc4o3)c2)c1` , I see its inhibition at 1 µM listed as 1.96

Looking up `COc1cccc(C(=O)Nc2cccc(-c3cc(=O)c4c(O)c(OC)c(OC)cc4o3)c2)c1` , I see its inhibition at 1 µM listed as -6.92

Looking up `COc1ccc(C(=O)Nc2cccc(-c3cc(=O)c4c(OC)c(OC)c(OC)cc4o3)c2)cc1` , I see its inhibition at 1 µM listed as -12.5

Looking up `COc1cccc(C(=O)Nc2cccc(-c3cc(=O)c4c(OC)c(OC)c(OC)cc4o3)c2)c1` , I see its inhibition at 1 µM listed as -52.5

Looking up `COc1ccc(C(=O)Nc2ccc(-c3cc(=O)c4c(OC)c(OC)c(OC)cc4o3)cc2)cc1` , I see its inhibition at 1 µM listed as -40.9

Looking up `COc1ccc(NC(=O)c2cccc(-c3cc(=O)c4c(O)c(OC)c(OC)cc4o3)c2)cc1` , I see its inhibition at 1 µM listed as 10.2

Looking up `COc1ccccc1NC(=O)c1cccc(-c2cc(=O)c3c(OC)c(OC)c(OC)cc3o2)c1` , I see its inhibition at 1 µM listed as -32.2

Looking up `COc1cc2oc(-c3cccc(C(=O)Nc4ccccc4)c3)cc(=O)c2c(OC)c1OC` , I see its inhibition at 1 µM listed as 12.5

Looking up `COc1cc2oc(-c3ccc(NC(=O)c4ccccc4)cc3)cc(=O)c2c(OC)c1OC` , I see its inhibition at 1 µM listed as -23.2

* * *

Consider the following compounds; for each one, report its inhibition at 1 µM.
# Test system: RAW264.7
# PROTOCOL_SUMMARY: Anti-inflammatory activity in mouse RAW264.7 cells assessed as inhibition of LPS-induced IL-6 production at 1 uM preincubated for 1 hr followed by LPS addition and measured after 24 hrs by EIA relative to control
# Format: functional
Write the value in % as a bare number.

Sample `COc1ccccc1C(=O)Nc1cccc(-c2cc(=O)c3c(O)c(OC)c(OC)cc3o2)c1` , system: RAW264.7. Its inhibition at 1 µM is -9.4

Sample `COc1cc2oc(-c3cccc(C(=O)Nc4ccccc4)c3)cc(=O)c2c(O)c1OC` , system: RAW264.7. Its inhibition at 1 µM is -5.27

Sample `COc1cc2oc(-c3cccc(NC(=O)c4ccc5c(c4)OCO5)c3)cc(=O)c2c(OC)c1OC` , system: RAW264.7. Its inhibition at 1 µM is -9.56

Sample `COc1cc2oc(-c3cccc(C(=O)Nc4ccc5c(c4)OCO5)c3)cc(=O)c2c(O)c1OC` , system: RAW264.7. Its inhibition at 1 µM is 12.8

Sample `COc1ccccc1NC(=O)c1cccc(-c2cc(=O)c3c(O)c(OC)c(OC)cc3o2)c1` , system: RAW264.7. Its inhibition at 1 µM is -21.4

Sample `COc1cc2oc(-c3cccc(NC(=O)c4ccc5c(c4)OCO5)c3)cc(=O)c2c(O)c1OC` , system: RAW264.7. Its inhibition at 1 µM is -6.67

Sample `COc1cc2oc(-c3cccc(C(=O)Nc4ccc5c(c4)OCO5)c3)cc(=O)c2c(OC)c1OC` , system: RAW264.7. Its inhibition at 1 µM is 25.7

Sample `COc1ccccc1C(=O)Nc1cccc(-c2cc(=O)c3c(OC)c(OC)c(OC)cc3o2)c1` , system: RAW264.7. Its inhibition at 1 µM is -15.8

Sample `COc1cccc(C(=O)Nc2ccc(-c3cc(=O)c4c(OC)c(OC)c(OC)cc4o3)cc2)c1` , system: RAW264.7. Its inhibition at 1 µM is -47.5

* * *

# PROTOCOL_SUMMARY: Cytotoxicity against LPS-induced mouse RAW264.7 cells assessed as cell viability at 1 uM incubated for 24 hrs by MTT assay relative to control
# Format: cell-based
# EXPERIMENTAL_SETUP: LPS-induced RAW264.7 cells, read-out: Activity
TEST_READOUT: viability at 24 h, 1 µM (%)
Write the value in % as a bare number.

Looking up `COc1ccccc1C(=O)Nc1ccc(-c2cc(=O)c3c(OC)c(OC)c(OC)cc3o2)cc1` , I see its viability at 24 h, 1 µM listed as 108

Looking up `COc1ccccc1NC(=O)c1cccc(-c2cc(=O)c3c(O)c(OC)c(OC)cc3o2)c1` , I see its viability at 24 h, 1 µM listed as 99.4

Looking up `COc1ccc(C(=O)Nc2ccc(-c3cc(=O)c4c(OC)c(OC)c(OC)cc4o3)cc2)cc1` , I see its viability at 24 h, 1 µM listed as 92.4

Looking up `COc1cc2oc(-c3cccc(C(=O)Nc4ccc5c(c4)OCO5)c3)cc(=O)c2c(O)c1OC` , I see its viability at 24 h, 1 µM listed as 97.1

Looking up `COc1ccc(C(=O)Nc2cccc(-c3cc(=O)c4c(OC)c(OC)c(OC)cc4o3)c2)cc1` , I see its viability at 24 h, 1 µM listed as 102

Looking up `COc1ccc(NC(=O)c2cccc(-c3cc(=O)c4c(OC)c(OC)c(OC)cc4o3)c2)cc1` , I see its viability at 24 h, 1 µM listed as 90

Looking up `COc1cccc(C(=O)Nc2cccc(-c3cc(=O)c4c(OC)c(OC)c(OC)cc4o3)c2)c1` , I see its viability at 24 h, 1 µM listed as 117

Looking up `COc1ccccc1NC(=O)c1cccc(-c2cc(=O)c3c(OC)c(OC)c(OC)cc3o2)c1` , I see its viability at 24 h, 1 µM listed as 101

Looking up `COc1cc2oc(-c3ccc(NC(=O)c4ccccc4)cc3)cc(=O)c2c(OC)c1OC` , I see its viability at 24 h, 1 µM listed as 109

Looking up `COc1cc(NC(=O)c2cccc(-c3cc(=O)c4c(O)c(OC)c(OC)cc4o3)c2)cc(OC)c1OC` , I see its viability at 24 h, 1 µM listed as 144

Looking up `COc1ccc(NC(=O)c2cccc(-c3cc(=O)c4c(O)c(OC)c(OC)cc4o3)c2)cc1` , I see its viability at 24 h, 1 µM listed as 92.8

Looking up `COc1cc2oc(-c3cccc(NC(=O)c4ccccc4)c3)cc(=O)c2c(OC)c1OC` , I see its viability at 24 h, 1 µM listed as 95.8

Looking up `COc1cc(NC(=O)c2cccc(-c3cc(=O)c4c(OC)c(OC)c(OC)cc4o3)c2)cc(OC)c1OC` , I see its viability at 24 h, 1 µM listed as 113

Looking up `COc1cccc(C(=O)Nc2ccc(-c3cc(=O)c4c(OC)c(OC)c(OC)cc4o3)cc2)c1` , I see its viability at 24 h, 1 µM listed as 111

Looking up `COc1ccccc1C(=O)Nc1cccc(-c2cc(=O)c3c(OC)c(OC)c(OC)cc3o2)c1` , I see its viability at 24 h, 1 µM listed as 99.8

Looking up `COc1ccccc1C(=O)Nc1cccc(-c2cc(=O)c3c(O)c(OC)c(OC)cc3o2)c1` , I see its viability at 24 h, 1 µM listed as 90.9

Looking up `COc1cc2oc(-c3cccc(C(=O)Nc4ccccc4)c3)cc(=O)c2c(OC)c1OC` , I see its viability at 24 h, 1 µM listed as 90.6

Looking up `COc1cc2oc(-c3ccc(NC(=O)c4ccc5c(c4)OCO5)cc3)cc(=O)c2c(OC)c1OC` , I see its viability at 24 h, 1 µM listed as 63

Looking up `COc1cccc(NC(=O)c2cccc(-c3cc(=O)c4c(O)c(OC)c(OC)cc4o3)c2)c1` , I see its viability at 24 h, 1 µM listed as 103

Looking up `COc1cccc(C(=O)Nc2cccc(-c3cc(=O)c4c(O)c(OC)c(OC)cc4o3)c2)c1` , I see its viability at 24 h, 1 µM listed as 109

Looking up `COc1cc2oc(-c3cccc(C(=O)Nc4ccc5c(c4)OCO5)c3)cc(=O)c2c(OC)c1OC` , I see its viability at 24 h, 1 µM listed as 92

Looking up `COc1cc2oc(-c3cccc(NC(=O)c4ccc5c(c4)OCO5)c3)cc(=O)c2c(OC)c1OC` , I see its viability at 24 h, 1 µM listed as 116

Looking up `COc1ccc(C(=O)Nc2cccc(-c3cc(=O)c4c(O)c(OC)c(OC)cc4o3)c2)cc1` , I see its viability at 24 h, 1 µM listed as 105

Looking up `COc1cc2oc(-c3cccc(NC(=O)c4ccc5c(c4)OCO5)c3)cc(=O)c2c(O)c1OC` , I see its viability at 24 h, 1 µM listed as 104

Looking up `COc1cc2oc(-c3cccc(C(=O)Nc4ccccc4)c3)cc(=O)c2c(O)c1OC` , I see its viability at 24 h, 1 µM listed as 103

Looking up `COc1cccc(NC(=O)c2cccc(-c3cc(=O)c4c(OC)c(OC)c(OC)cc4o3)c2)c1` , I see its viability at 24 h, 1 µM listed as 84.2

meta.source: ChEMBL document CHEMBL4359854
